Target: Human plasma kallikrein (Homo sapiens (Human))
Experiment: Determination of the IC50 for plasma kallikrein
Assay type: biochemical
Settings: fluorogenic substrate H-DPro-Phe-Arg-AFC, 37° C., read-out: IC50 (human PKal)
pIC50: −log10 of the molar value.
Property: pIC50

Some entries whose results are on file:
- Molecule: "NCc1ccc(CNC(=O)[C@H](Cc2ccccc2)NC(=O)[C@@H](CC2CCCCC2)NCC(=O)O)cc1 [Example 4]"
  Property: "pIC50"
  Readout value: 6.64
- Molecule: "CCOc1ccc(C[C@@H](NS(C)(=O)=O)C(=O)N[C@@H](Cc2ccccc2)C(=O)NCc2ccc(CN)cc2)cc1 [Example 2]"
  Property: "pIC50"
  Readout value: 6.09
- Molecule: "CCOc1ccc(C[C@@H](NC(=O)C(C)C)C(=O)N(C)[C@@H](Cc2ccccc2)C(=O)NCc2ccc(CN)cc2)cc1 [Example 44]"
  Property: "pIC50"
  Readout value: 6.74
- Molecule: "CS(=O)(=O)N[C@H](CC1CCCCC1)C(=O)N[C@@H](Cc1ccccc1)C(=O)NCc1ccc(CN)cc1 [Example 11]"
  Property: "pIC50"
  Readout value: 5.77
- Molecule: "CN(C(=O)[C@@H](CC1CCCCC1)NCC(=O)O)[C@@H](Cc1ccccc1)C(=O)NCc1ccc(CN)c(F)c1 [Example 34]"
  Property: "pIC50"
  Readout value: 5.85

(a) CN[C@H](CC1CCCCC1)C(=O)N[C@@H](Cc1ccccc1)C(=O)NCc1ccc(CN)cc1 [Example 33]
(b) CCOc1ccc(C[C@@H](NC(=O)c2cccc3ccccc23)C(=O)N[C@@H](Cc2ccccc2)C(=O)NCc2ccc(CN)cc2)cc1 [Example 54]
(c) CN(CCO)[C@H](CC1CCCCC1)C(=O)N[C@@H](Cc1ccccc1)C(=O)NCc1ccc(CN)cc1 [Example 49]
(d) CCOc1ccc(C[C@@H](NC(=O)c2ccc(Cl)cc2Cl)C(=O)N[C@@H](Cc2ccccc2)C(=O)NCc2ccc(CN)cc2)cc1 [Example 58]
Problem: Order each entry by recorded pIC50, climbing from the minimum. # answer = labels listed in requested order
Solution: c, a, d, b
(c: 5.66, a: 5.96, d: 6.77, b: 7.08)

(I) CCOc1ccc(C[C@@H](NC(=O)c2ccc(F)c(F)c2)C(=O)N[C@@H](Cc2ccccc2)C(=O)NCc2ccc(CN)cc2)cc1 [Example 59]
(II) COC(=O)CN[C@H](CC1CCCCC1)C(=O)N[C@@H](Cc1ccccc1)C(=O)NCc1ccc(CN)cc1 [Example 47]
(III) NCc1ccc(CNC(=O)[C@H](Cc2ccccc2)NC(=O)[C@@H](CC2CCCCC2)NCC(N)=O)cc1 [Example 50]
Problem: Rank descending by pIC50. Dear reader, please state the labels in the requested order.
Solution: I, II, III
(I: 7.11, II: 5.68, III: 5.37)

(I) CCOc1ccc(C[C@@H](NC(=O)CC)C(=O)N[C@@H](Cc2ccc(Cl)c(Cl)c2)C(=O)NCc2ccc(CN)cc2)cc1 [Example 16]
(II) CN(C)[C@H](CC1CCCCC1)C(=O)N[C@@H](Cc1ccccc1)C(=O)NCc1ccc(CN)cc1 [Example 9]
Problem: Returns: the argument ( I or II ) having the larger pIC50. Write the label of whichever entry you select.
Solution: I

###

Molecular target: Human plasma kallikrein (Homo sapiens (Human), UniProt P03952)
Sequence (P03952 391-638): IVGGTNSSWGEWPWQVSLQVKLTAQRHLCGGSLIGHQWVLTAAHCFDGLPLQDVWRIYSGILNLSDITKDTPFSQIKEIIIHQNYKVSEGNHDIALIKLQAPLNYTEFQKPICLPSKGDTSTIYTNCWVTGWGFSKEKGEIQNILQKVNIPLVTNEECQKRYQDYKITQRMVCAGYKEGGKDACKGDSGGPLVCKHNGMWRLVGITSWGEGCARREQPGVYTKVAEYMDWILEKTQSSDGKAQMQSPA
Sequence (P03952 20-390 partner): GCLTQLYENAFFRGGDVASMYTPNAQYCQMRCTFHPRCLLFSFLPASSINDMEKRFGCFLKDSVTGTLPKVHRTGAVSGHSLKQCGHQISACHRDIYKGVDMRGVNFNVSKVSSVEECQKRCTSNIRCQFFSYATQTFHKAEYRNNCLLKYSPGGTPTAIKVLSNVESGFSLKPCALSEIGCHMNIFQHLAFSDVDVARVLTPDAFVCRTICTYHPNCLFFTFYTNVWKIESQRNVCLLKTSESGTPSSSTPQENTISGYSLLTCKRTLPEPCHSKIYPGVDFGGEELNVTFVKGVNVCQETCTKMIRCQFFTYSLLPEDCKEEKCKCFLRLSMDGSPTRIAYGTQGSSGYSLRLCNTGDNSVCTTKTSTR
Assay: Determination of the IC50 for plasma kallikrein
Assay type: biochemical
Details: 37° C., substrate H-DPro-Phe-Arg-AFC, read-out: IC50 (human PKal)
Property: IC50 (nM)

- Mol smiles: "CCOc1ccc(C[C@@H](NC(=O)c2ccsc2)C(=O)N[C@@H](Cc2ccccc2)C(=O)NCc2ccc(CN)cc2)cc1"
  Result units: "nM"
  IC50: 46
- Mol smiles: "NCc1ccc(CNC(=O)[C@H](Cc2ccccc2)NC(=O)[C@@H](Cc2ccc(OCc3ccc(F)cc3)cc2)NC(=O)c2ccccc2)cc1"
  Result units: "nM"
  IC50: 2490

(P) CCOc1ccc(C[C@@H](NC(=O)c2ccc(Cl)nc2Cl)C(=O)N[C@@H](Cc2ccccc2)C(=O)NCc2ccc(CN)cc2)cc1
(Q) CCOc1ccc(C[C@@H](NC(=O)N(CC)Cc2ccccc2)C(=O)N[C@@H](Cc2ccccc2)C(=O)NCc2ccc(CN)cc2)cc1
Problem: Out of P and Q , name the one with the higher IC50. Mark your answer with the label of the selected entry.
Solution: Q

(I) NCc1ccc(CNC(=O)[C@H](Cc2ccccc2)NC(=O)[C@@H](Cc2ccc(OCc3c(Cl)cccc3Cl)cc2)NC(=O)c2ccccc2)cc1
(II) CCOc1ccc(C[C@@H](NC(=O)c2ccccc2)C(=O)N[C@H](C(=O)NCc2ccc(CN)cc2)[C@H](O)c2ccccc2)cc1
Problem: Just tell me: smaller IC50 value, I or II ? Selection: enter the item's label.
Solution: II
(II: 12 nM, I: 10000 nM)

(1) CCOc1ccc(C[C@@H](NC(=O)c2cncc(OC)c2)C(=O)N[C@@H](Cc2ccccc2)C(=O)NCc2ccc(CN)cc2)cc1
(2) CCOc1ccc(C[C@@H](NC(=O)NCc2ccccc2)C(=O)N[C@@H](Cc2ccccc2)C(=O)NCc2ccc(CN)cc2)cc1
Problem: Compare the recorded IC50 of 1 and 2 ; state which is larger. In your reply, give the label of the chosen option.
Solution: 2

###

Biological target: Human plasma kallikrein (Homo sapiens (Human), UniProt P03952)
Assay: Determination of the IC50 for plasma kallikrein
Assay type: biochemical
Conditions: fluorogenic substrate H-DPro-Phe-Arg-AFC, 37° C., read-out: IC50 (human PKal)
Property: IC50 (nM)

- Mol smiles: "CCOc1ccc(C[C@@H](NC(=O)CC)C(=O)N[C@@H](Cc2ccccc2)C(=O)NCc2ccc(CN)cc2)cc1"
  IC50 / nM: 89
- Mol smiles: "CCOc1ccc(C[C@@H](NC(=O)CC)C(=O)N2CC[C@H](c3ccccc3)[C@H]2C(=O)NCc2ccc(CN)cc2)cc1"
  IC50 / nM: 1600

(1) CCOc1ccc(C[C@@H](NC(C)=O)C(=O)N(C)[C@@H](Cc2ccccc2)C(=O)NCc2ccc(CN)cc2)cc1
(2) CCOc1ccc(C[C@@H](NC)C(=O)N[C@@H](Cc2ccccc2)C(=O)NCc2ccc(CN)cc2)cc1
Problem: Kindly identify which of 1 and 2 has the larger recorded IC50 value. Identify your selection by its label.
Solution: 2
(2: 1300 nM, 1: 310 nM)

###

Target: Human KLK1 (Homo sapiens (Human))
Sequence (P06870 25-262): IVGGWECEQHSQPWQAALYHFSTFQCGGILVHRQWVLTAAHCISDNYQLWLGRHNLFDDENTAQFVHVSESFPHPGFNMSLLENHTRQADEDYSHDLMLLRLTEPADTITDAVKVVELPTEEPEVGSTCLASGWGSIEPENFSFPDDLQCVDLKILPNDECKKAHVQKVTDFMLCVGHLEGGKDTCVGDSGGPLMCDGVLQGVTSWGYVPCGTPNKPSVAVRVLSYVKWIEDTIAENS
Assay: Determination of the IC50 for KLK1
Assay type: biochemical
Conditions: Human KLK1, 37° C., substrate H-DVal-Leu-Arg-AFC; Table 13
Method: Determination of the IC50 for KLK1 KLK1 inhibitory activity in vitro was determined using standard published methods (see e.g. Johansen et al., Int. J. Tiss. Reac. 1986, 8, 185; Shori et al., Biochem. Pharmacol., 1992, 43, 1209; Stürzebecher et al., Biol. Chem. Hoppe-Seyler, 1992, 373, 1025). […] Residual enzyme activity (initial rate of reaction) was determined by measuring the change in optical absorbance at 410 nm and the IC50 value for the test compound was determined.
pIC50: −log10 of the molar value.
Property: pIC50

Below, each entry is followed by its recorded pIC50 result.
- Compound: "CCOc1ccc(C[C@@H](NC(=O)c2sccc2NC(C)=O)C(=O)N[C@@H](Cc2ccccc2)C(=O)NCc2ccc(CN)cc2)cc1"
  Experimental system: "Human KLK1 (Homo sapiens (Human))"
  pIC50: 5.14
- Compound: "CCOc1ccc(C[C@@H](NC(=O)c2ccc(Cl)c(Cl)c2)C(=O)N[C@@H](Cc2ccccc2)C(=O)NCc2ccc(CN)cc2)cc1"
  Experimental system: "Human KLK1 (Homo sapiens (Human))"
  pIC50: "< 5.00"
- Compound: "CCOc1ccc(C[C@@H](NC(=O)c2ccccc2)C(=O)N[C@@H](Cc2c[nH]cn2)C(=O)NCc2ccc(CN)cc2)cc1"
  Experimental system: "Human KLK1 (Homo sapiens (Human))"
  pIC50: "< 5.00"
- Compound: "NCc1ccc(CNC(=O)[C@H](Cc2ccccc2)NC(=O)[C@@H](Cc2ccc(OCc3ccc(F)cc3)cc2)NC(=O)c2ccccc2)cc1"
  Experimental system: "Human KLK1 (Homo sapiens (Human))"
  pIC50: "< 5.00"
- Compound: "CCOc1ccc(C[C@@H](NC(=O)c2cc(Cl)cc(Cl)c2)C(=O)N[C@@H](Cc2ccccc2)C(=O)NCc2ccc(CN)cc2)cc1"
  Experimental system: "Human KLK1 (Homo sapiens (Human))"
  pIC50: "< 5.00"

Problem: Can you share its pIC50? I mean this compound: `CCOc1ccc(C[C@@H](NC(=O)c2ccccc2Cl)C(=O)N[C@@H](Cc2ccccc2)C(=O)NCc2ccc(CN)cc2)cc1`
Solution: 5.43

Problem: Try the compound `NCc1ccc(CNC(=O)[C@H](Cc2ccccc2)NC(=O)[C@@H](Cc2ccc(Cl)cc2)NC(=O)c2ccccc2)cc1`
Solution: < 5.00
